target: ProfilerPro Kinase Selectivity Assay Kit kinases (Homo sapiens); assay type: biochemical; conditions: ROCK2; 1 μM compound concentration
MEASURED ENDPOINT: POC (Percent of control) ROCK2 (POC)

SMILES STRING: Cc1nc(N)nc(-c2cccnc2Nc2cccc(O)c2)n1
POC (Percent of control) ROCK2 / POC: 101

SMILES STRING: Cc1nc(N)nc(-c2cc(CN3CCN(S(C)(=O)=O)CC3)cnc2Nc2cccc(O)c2)n1
POC (Percent of control) ROCK2 / POC: 98

SMILES STRING: COc1ccc(Nc2ncc(CN3CCN(C(C)=O)CC3)cc2-c2nc(C)nc3[nH]cnc23)cn1
POC (Percent of control) ROCK2 / POC: 101

SMILES STRING: CCc1cnc(Nc2ccc(OC)nc2)c(-c2nc(C)nc3[nH]cnc23)c1
POC (Percent of control) ROCK2 / POC: 101

---

tested on: phosphorylation of Akt at Serine 473 in U87 MG cells; assay: cells; details: Homo sapiens, U-87 MG, 2 h, read-out: U87Cell IC50, pAkt (Ser 473), U87 MG cells, two hours with compound
pIC50: −log10 of the molar value.
MEASURED ENDPOINT: pIC50

MOLECULE: COc1ccc(Nc2ncc(Cc3ccc(S(C)(=O)=O)cc3)cc2-c2nc(C)nc3[nH]cnc23)cn1
RECORDED NUMBER: 7.55

MOLECULE: COc1ccc(Nc2ncc(CN3CCN(C(=O)N(C)C4CC4)CC3)cc2-c2nc(C)nc(N)n2)cn1
RECORDED NUMBER: 7.05

MOLECULE: COc1ccc(Nc2ncc(CN3CCN(C(C)=O)CC3)cc2-c2nc(C)nc3[nH]cnc23)cn1
RECORDED NUMBER: 6.84

MOLECULE: Cc1nc(-c2cc(C(C)N3CCOCC3)cnc2Nc2cnc(Cl)c(NS(C)(=O)=O)c2)c2nc[nH]c2n1 (stereo not shown)
RECORDED NUMBER: 7.35

MOLECULE: Cc1nc(N)nc(-c2cc(CN3CCN(S(C)(=O)=O)CC3)cnc2Nc2cncnc2)n1
RECORDED NUMBER: 6.84

a. COc1ncc(Nc2nc(C)ccc2-c2nc(C)nc(N)n2)cc1F
b. COc1ncc(Nc2ncc(CN3CCN4C(CCS4(=O)=O)C3)cc2-c2nc(C)nc(N)n2)cc1F (stereo not shown)
Ask: Could you tell me which of these two has the smaller pIC50 figure? First: a Second: b Give the chosen item's label as your response.
Result: a

a. COc1ccc(Nc2ncc(CNc3ccccc3)cc2-c2nc(C)nc3[nH]cnc23)cn1
b. COc1ncc(Nc2nc(CN3CCOCC3)ccc2-c2nc(C)nc(N)n2)cc1F
Ask: Lab note: record which item had the higher pIC50, a or b . Give the chosen item's label as your response.
Result: b

1. Cc1nc(-c2cnccc2Nc2cccc3[nH]ncc23)c2nc[nH]c2n1
2. COc1ncc(Nc2ncc(CN3CCN(C(=O)N(C)C(C)C)CC3)cc2-c2nc(C)nc(N)n2)cc1F
Ask: Lab note: record which item had the higher pIC50, 1 or 2 . Give the chosen item's label as your response.
Result: 2

---

system: phosphorylation of Akt at Serine 473 in U87 MG cells; experiment: cells; details: Homo sapiens, U-87 MG, 2 h, read-out: U87Cell IC50, pAkt (Ser 473), U87 MG cells, two hours with compound
MEASURED ENDPOINT: IC50 (nM)

SMILES STRING: Cc1nc(N)nc(-c2cc(CN3CCOCC3)cnc2Nc2ccc3scnc3c2)n1
IC50, nM: 83
//
SMILES STRING: CC(=O)Nc1ccc(Nc2ncccc2-c2nc(C)nc3[nH]cnc23)cc1
IC50, nM: 88

a. COc1ccc(Nc2ncc(-c3ccnnc3)cc2-c2nc(C)nc(N)n2)cn1
b. COc1ncc(Nc2ncc(C(C)(C)O)nc2-c2cc(N)nc(C)n2)cc1F
Ask: Could you tell me which of these two has the smaller IC50 figure? First: a Second: b Give the chosen item's label as your response.
Result: b
(b: 63 nM, a: 151 nM)
